# assayed system: human recombinant 5-HT2C receptor (Homo sapiens, UniProt P28335)
# Sequence (P28335 33-458): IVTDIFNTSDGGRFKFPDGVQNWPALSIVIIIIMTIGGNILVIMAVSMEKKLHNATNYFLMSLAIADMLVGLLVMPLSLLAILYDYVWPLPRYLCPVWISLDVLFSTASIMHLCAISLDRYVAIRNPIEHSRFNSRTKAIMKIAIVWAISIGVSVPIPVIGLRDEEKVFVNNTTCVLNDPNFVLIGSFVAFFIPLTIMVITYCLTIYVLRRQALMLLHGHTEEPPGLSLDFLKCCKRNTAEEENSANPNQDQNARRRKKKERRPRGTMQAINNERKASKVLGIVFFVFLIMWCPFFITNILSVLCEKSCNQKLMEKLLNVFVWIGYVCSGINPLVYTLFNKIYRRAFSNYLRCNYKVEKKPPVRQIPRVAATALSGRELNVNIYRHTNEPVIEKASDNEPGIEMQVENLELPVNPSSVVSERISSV
# test: Affinity for 5HT2 receptor binding sites, h5-HT2C, [3H]mesulergine
# assay setup: CHO h5-HT2C membranes
Where a name gives a salt, the structure may show the parent alone.
property name: pKi
Quick note: pKi values are minus log10 of concentrations in mol/L.

pKi in this record for "Cc1ccc(-c2nc(C(C)C)nc3c2CNCC3)cc1" : 5.52

The recorded pKi for CC(C)c1nc(-c2ccc(C(F)(F)F)cc2)c2c(n1)C(C)CNC2 (stereo not drawn) is 5.52

Record summary for CC(C)c1nc2c(c(-c3ccc(F)cc3)n1)CCNCC2 [Example 50, hydrochloride] : reported pKi = 7.10

GET /value?item= CCC(C)c1nc2c(c(-c3ccc(C)cc3)n1)CNCC2 (stereo not drawn) [Example 4, hydrochloride] &field=pKi returns 6.70

Input "c1ccc(Cc2nc3c(c(-c4ccccc4)n2)CNCC3)cc1" . Output pKi: 5.70

Entry "Fc1ccc(Cc2nc3c(c(-c4ccc(F)cc4)n2)CNCC3)cc1" , pKi reported as 6.00

Sample "COc1ccc(-c2nc(C(C)C)nc3c2CCCNC3)cc1" ; pKi observed: 6.31

---

# assayed system: 5-HT2B receptor (Homo sapiens)
Counter-ions that a name gives are not always drawn.
property name: Ki (µM)
Numbers only; they are read as µM.

# Ki of Cc1cc(-c2nc(C(C)C)nc3c2CCN(Cc2ccccc2)C3)cs1 [Example 86, hydrochloride] = 4.1

The reported value for Cc1ccc(-c2nc(C(C)C)nc3c2CCCNC3)cc1 [Example 66, hydrochloride] in terms of Ki is 0.03

The value of Ki measured for the compound COc1ccc(-c2nc(C(C)C)nc3c2CNCC3)cc1 [Example 30] turned out to be 1

get_value(item= COc1ccc(-c2nc(CC(C)C)nc3c2CNCC3)cc1 [Example 41] , readout=Ki) returns 5

---

# assayed system: 5-HT2B receptor (Homo sapiens, UniProt P41595)
# Sequence (P41595 whole entry): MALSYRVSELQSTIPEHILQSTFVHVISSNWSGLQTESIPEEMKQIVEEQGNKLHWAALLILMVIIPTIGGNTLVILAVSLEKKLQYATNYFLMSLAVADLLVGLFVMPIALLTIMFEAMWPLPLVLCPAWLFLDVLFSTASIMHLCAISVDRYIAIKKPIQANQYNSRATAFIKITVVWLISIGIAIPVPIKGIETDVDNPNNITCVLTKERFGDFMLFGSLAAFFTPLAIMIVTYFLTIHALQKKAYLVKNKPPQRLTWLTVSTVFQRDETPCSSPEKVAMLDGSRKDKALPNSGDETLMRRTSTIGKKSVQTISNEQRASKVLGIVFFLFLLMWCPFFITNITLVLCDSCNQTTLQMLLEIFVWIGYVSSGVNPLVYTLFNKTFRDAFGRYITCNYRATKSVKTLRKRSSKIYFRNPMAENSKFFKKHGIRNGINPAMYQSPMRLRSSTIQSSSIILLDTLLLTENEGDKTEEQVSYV
# test: In vitro functional assay for 5-HT2 receptor (intracellular calcium, FLIPR), 5-HT2B
# Format: cell-based
# assay setup: same cell lines as receptor binding, read-out: pKb 5-HT2B (converted)
Where a name gives a salt, the structure may show the parent alone.
property name: log10 Kb (log10 of the value in nM)
Response schema: value (number) is log10 of Kb in units of nM.

{"compound": "Cc1ccc(-c2nc(C3CCCC3)nc3c2CNCC3)cc1", "property name": "log10 Kb", "obs value": 2.30}
{"compound": "C=C1CN(C)CCc2c1nc(Cc1ccc(F)cc1)nc2-c1ccc(F)cc1", "property name": "log10 Kb", "obs value": 2.70}
{"compound": "CC(C)c1nc2c(c(-c3ccc(F)cc3)n1)CCNCC2 [Example 50, hydrochloride]", "property name": "log10 Kb", "obs value": 0.70}
{"compound": "Fc1ccc(-c2nc(C3CCCC3)nc3c2CNCC3)cc1", "property name": "log10 Kb", "obs value": 3.60}

// field: log10 Kb; key: "Fc1ccc(Cc2nc3c(c(-c4ccc(F)cc4)n2)CCNCC3)cc1" ; value = 2.10

Recorded result, "CN1CCc2nc(Cc3ccc(F)cc3)nc(-c3ccc(F)cc3)c2CC1" , log10 Kb: 1.70

Kindly note the recorded log10 Kb for CN1CCc2c(nc(Cc3ccccc3)nc2-c2ccc(F)cc2)C1 [Example 82, hydrochloride] , which is 3.60

---

# assayed system: UniProt P41595
pKi: −log10 of the molar value. Structures can show the parent of a compound that is named as a salt.
# binning rule on pKi: lower level (below 6), middle level (6 to below 7), upper level (7 or more)

Solved entries:
{"compound": "Cc1ccc(-c2nc(Cc3ccccc3)nc3c2CCN(C)CC3)cc1", "cat": "upper level"}
{"compound": "Cc1ccc(-c2nc(Cc3ccccc3)nc3c2CCNC3)cc1 [Example 77, hydrochloride]", "cat": "middle level"}
{"compound": "CC(C)c1nc(-c2ccc(C(F)(F)F)cc2)c2c(n1)C(C)CNC2 (centres unmarked)", "cat": "middle level"}
{"compound": "Fc1cccc(-c2nc(Cc3ccccc3)nc3c2CNCC3)c1", "cat": "lower level"}
{"compound": "N#Cc1ccc(-c2nc(Cc3ccc(F)cc3)nc3c2CNCC3)cc1", "cat": "lower level"}
{"compound": "CC(C)c1nc2c(c(-c3cccc(F)c3)n1)CNCC2", "cat": "lower level"}

Ask: Looking at CC(C)c1nc2c(c(-c3ccsc3)n1)CCNC2 [Example 89, hydrochloride] , which class would you pick?
Result: upper level

Ask: Please report the category associated with CC(C)c1nc2c(c(-c3ccc(F)cc3)n1)CCCNC2 [Example 65, hydrochloride] , nothing else.
Result: middle level

Ask: Where would "C=C1CN(C)CCc2c1nc(Cc1ccc(F)cc1)nc2-c1ccc(F)cc1" land among the classes by reported pKi?
Result: upper level

Ask: Given "Cc1ccc(-c2cc(CCN)nc(Cc3ccccc3)n2)cc1" , name the class its pKi places it in.
Result: lower level

Ask: Place this compound in its band: "CC(C)c1nc2c(c(-c3ccc(F)cc3)n1)CN(C)CC2"
Result: middle level

---

# assayed system: rat 5-HT7a receptor (Rattus norvegicus)
# Sequence (P32305 whole entry): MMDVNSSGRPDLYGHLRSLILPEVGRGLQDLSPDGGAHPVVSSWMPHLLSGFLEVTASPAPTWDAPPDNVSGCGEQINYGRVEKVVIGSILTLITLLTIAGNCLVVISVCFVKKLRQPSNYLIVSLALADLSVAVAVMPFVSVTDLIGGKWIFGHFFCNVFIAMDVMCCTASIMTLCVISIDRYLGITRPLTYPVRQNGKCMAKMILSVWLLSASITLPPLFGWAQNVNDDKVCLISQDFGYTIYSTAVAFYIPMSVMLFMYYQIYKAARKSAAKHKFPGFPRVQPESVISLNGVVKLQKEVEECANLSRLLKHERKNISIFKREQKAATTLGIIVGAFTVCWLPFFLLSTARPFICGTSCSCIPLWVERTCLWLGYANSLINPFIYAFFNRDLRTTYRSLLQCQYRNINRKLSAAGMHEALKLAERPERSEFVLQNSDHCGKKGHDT
# test: Affinity for 5-HT7 receptor binding sites, radioligand binding with [3H]5-CT
# assay setup: membranes of HEK-293 cells with rat 5-HT7a, 1 nM [3H]5-CT
pKi: −log10 of the molar value. Where a name gives a salt, the structure may show the parent alone.
property name: pKi

{"compound": "CC(C)c1nc2c(c(-c3cccc(F)c3)n1)CNCC2", "pKi": "< 5.00"}

Record for CC(C)c1nc2c(c(-c3ccsc3)n1)CCN(Cc1ccccc1)C2 [Example 87, hydrochloride] under target or system rat 5-HT7a receptor (Rattus norvegicus): pKi reported as < 5.00

Record CCC(C)c1nc2c(c(-c3ccc(F)cc3)n1)CNCC2 (stereo not drawn) [Example 3, hydrochloride] / rat 5-HT7a receptor (Rattus norvegicus), pKi recorded as < 5.00

---

# assayed system: human recombinant 5-HT2C receptor (Homo sapiens)
# test: Affinity for 5HT2 receptor binding sites, h5-HT2C, [3H]mesulergine
# assay setup: CHO h5-HT2C membranes
pKi: −log10 of the molar value. Counter-ions that a name gives are not always drawn.
Note to self: values exactly at 6 are t. So pKi at or above 6 is t, below is f.

Solved cases below.
{"compound": "Cc1ccc(-c2cc(CN3CCN(C)CC3)nc(Cc3ccccc3)n2)cc1", "assayed system": "human recombinant 5-HT2C receptor (Homo sapiens)", "cat": "f"}
{"compound": "CC(C)c1nc(-c2ccc(Cl)cc2)c2c(n1)C(C)CN(Cc1ccccc1)C2 (stereo not drawn)", "assayed system": "human recombinant 5-HT2C receptor (Homo sapiens)", "cat": "f"}
{"compound": "Cc1nc2c(c(-c3ccc(Cl)cc3)n1)CCNCC2", "assayed system": "human recombinant 5-HT2C receptor (Homo sapiens)", "cat": "f"}
{"compound": "Fc1ccc(-c2nc(Cc3ccccc3)nc3c2CCNCC3)cc1", "assayed system": "human recombinant 5-HT2C receptor (Homo sapiens)", "cat": "t"}
{"compound": "Cc1ccc(-c2nc(Cc3ccccc3)nc3c2CCNC3)cc1 [Example 77, hydrochloride]", "assayed system": "human recombinant 5-HT2C receptor (Homo sapiens)", "cat": "t"}

Ask: Check the entry CCC(C)c1nc2c(c(-c3ccccc3F)n1)CNCC2 (stereo not drawn) [Example 42, hydrochloride] : does pKi equal or exceed 6?
Result: f

Ask: Check if pKi >= 6 (inclusive). Item: "Cc1ccc(-c2nc(C3CCC3)nc3c2CNCC3)cc1"
Result: t

Ask: Assess whether reported pKi for "CC(C)c1nc2c(c(-c3ccc(F)cc3)n1)CCCC2" sits at 6 or higher.
Result: f

---

# assayed system: 5-HT2A receptor (Homo sapiens)
# test: Affinity for 5-HT2A receptor binding sites, radioligand binding with [3H]ketanserin
# assay setup: read-out: Ki 5-HT2A, rat cortex membranes (assay 2) or NIH3T3 h5-HT2A membranes (assay 3), table does not say which
pKi: −log10 of the molar value. Structures can show the parent of a compound that is named as a salt.
# thresholds on pKi define classes: class 1 (below 7), class 2 (7 to below 8), class 3 (8 or more)

See these solved cases before continuing.
{"compound": "CN1CCc2nc(Cc3ccc(F)cc3)nc(-c3ccc(C#N)cc3)c2C1 [Example 15]", "assayed system": "5-HT2A receptor (Homo sapiens)", "cat": "class 1"}
{"compound": "Fc1ccc(-c2nc(Cc3ccccc3)nc3c2CCNCC3)cc1 [Example 54]", "assayed system": "5-HT2A receptor (Homo sapiens)", "cat": "class 3"}
{"compound": "CC(C)N1CCc2c(nc(Cc3ccccc3)nc2-c2ccc(F)cc2)C1 [Example 83]", "assayed system": "5-HT2A receptor (Homo sapiens)", "cat": "class 2"}
{"compound": "CC(C)c1nc2c(c(-c3ccc(F)cc3)n1)CCCNC2 [Example 65, hydrochloride]", "assayed system": "5-HT2A receptor (Homo sapiens)", "cat": "class 2"}
{"compound": "FC(F)(F)c1ccc(-c2nc(Cc3ccccc3)nc3c2CNCC3)cc1 [Example 9]", "assayed system": "5-HT2A receptor (Homo sapiens)", "cat": "class 1"}
{"compound": "Fc1ccc(-c2nc(Cc3ccccc3)nc3c2CNCC3)cc1F [Example 10]", "assayed system": "5-HT2A receptor (Homo sapiens)", "cat": "class 1"}

Ask: Hi, small favor: classify Fc1ccc(-c2nc(Cc3ccccc3)nc3c2CNCC3)cc1 [Example 2] by its pKi when you get a moment.
Result: class 2

Ask: Please classify: COc1ccc(-c2nc(C(C)C)nc3c2CCCNC3)cc1 [Example 67]
Result: class 2

Ask: Which bin, given its pKi, does CNCc1cc(-c2ccc(F)cc2)nc(C(C)C)n1 [Example 114] occupy?
Result: class 2

Numbers sourced from patent US7598255B2.
